Source of measurements: patent US5786145A

# target_or_system: HIV-1 Rev (Human immunodeficiency virus 1, UniProt P04618 P04618:1-116)
# Sequence (P04618 whole entry, one chain of several): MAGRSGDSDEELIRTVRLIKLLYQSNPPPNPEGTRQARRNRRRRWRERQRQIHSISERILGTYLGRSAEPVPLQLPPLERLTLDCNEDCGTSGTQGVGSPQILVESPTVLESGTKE
# protocol_details: filter; 50 mM KCl, 4 C; 35% bound at 10 nM rev
# setup_conditions: tags: none stated; heparin-Sepharose and Superose 6 purified; chain copies: oligomer (tetramer likely; about 4 per RBC6, 6-8 per full-length RRE at 50 mM KCl) stated; label: 32P uniform; stem-loop with altered bubble
pKd: −log10 of the molar value.
metric: pKd

binder | reported_measurement
R35 (dG35) (ssRNA) RNA: GGGAGACCGGAAUUCUGGCGCAGUGUCAUUGACGCUGCGGUACAGAAUUCCGGCA | 8.40
